Attribution: PubChem BioAssay (NCI)

- Tested on: SF-295 CNS
- experiment summary: NCI tumour cell line growth inhibition, 48 h
quantity kind: TGI

>  <compound>
c1ccc2cc(OCC3CO3)c(OCC3CO3)cc2c1 (stereo unspecified)

>  <value measured>
8.59 µM

$$$$
>  <compound>
Oc1ccc(/C=N/Nc2nc3ccccc3s2)c(O)c1

>  <value measured>
35.4 µM

$$$$
>  <compound>
COC1(OC)CC2C(=O)N(Cc3ccccc3)C1CC2S(=O)(=O)c1ccccc1 (stereo unspecified)

>  <value measured>
> 100 µM

$$$$
>  <compound>
CC1(C)C=[N+]([O-])C(C)(C)N1

>  <value measured>
> 100 µM

$$$$
>  <compound>
CN1CCN(Cc2ccc(NC(=O)c3[nH]ncc3Nc3ncnc4sccc34)cc2)CC1

>  <value measured>
> 100 µM

$$$$

Please find the next compound below.
Exercise: What does the record list as TGI for CC(=O)NCCCCCCNC(C)=O ?
Solution: > 10000 µM
